- Test system: NCI-H522
- experiment-summary: NCI tumour cell line growth inhibition, 48 h
Calls of active or inactive are those of the source. No stated cut-off is given here; in the data, active = GI50 up to about 1.1 µM and inactive = higher.
Exercise: for every item that follows, state its recorded GI50.

- compound: "NC(CCC(=O)NC(CSC(=O)N(O)c1ccc(Br)cc1)C(=O)NCC(=O)O)C(=O)O (stereo not drawn)"
  GI50: "> 100 µM (inactive)"
- compound: "O=c1[nH]nc(-c2ccccc2)c(-c2ccccc2)c1-n1nc(-c2ccccc2)c2ccccc2c1=O"
  GI50: "34 µM (inactive)"

Now consider a different compound.
Lab request: please report GI50 under test system NCI-H522 for Oc1ccc2ccccc2c1/N=N/c1ccc(Cl)cc1 > 100 µM (inactive)
